assay: in vivo; settings: male, Hsd:ICR (CD-1), mouse, plasma, iv, 3 mg/kg
Below, each of the compounds is paired with its reported Cmax value.

Illustrative cases are given below, each with its answer.
- compound: "Cl.Cl.N[C@H]1CC[C@H](Nc2nc(NC3CCN(C(=O)Nc4ccc(C(F)(F)F)cc4)CC3)c3ncn(C4CCCC4)c3n2)CC1 [compound 149]"
  Cmax: "3110 ng/mL"
- compound: "Cl.Cl.N[C@H]1CC[C@H](Nc2nc(NC3CCN(C(=O)Oc4ccc(Cl)cc4)CC3)c3ncn(C4CCCC4)c3n2)CC1 [compound 88]"
  Cmax: "1480 ng/mL"

Now examine the next entry.
Asked: Entry COc1ccc(OC(=O)N2CCC(Nc3nc(N[C@H]4CC[C@H](N)CC4)nc4c3ncn4C3CCCC3)CC2)cc1.Cl.Cl [compound 84] has what Cmax?
Given back: 1510 ng/mL

* * *

test system: HL-60 Human Leukemia; assay: HL-60 human leukemia xenograft in nude mice; format: in vivo; set-up: key: tumor volume = ½(a × b²) from caliper diameters, in mm^3; settings: Table 4; dose 3 mg/kg ip
# note: boundary value 3000 maps to 0 (no); HL60 Mean Vol. ± SD below it maps to 1 (yes)

Illustrative cases are given below, each with its answer.
- molecularString: "Cl.Cl.N[C@H]1CC[C@H](Nc2nc(NC3CCN(C(=O)Nc4ccc(C(F)(F)F)cc4)CC3)c3ncn(C4CCCC4)c3n2)CC1"
  classAssignment: "1 (yes)"
- molecularString: "Cl.Cl.N[C@H]1CC[C@H](Nc2nc(NC3CCN(C(=O)Oc4ccc(Cl)cc4)CC3)c3ncn(C4CCCC4)c3n2)CC1"
  classAssignment: "1 (yes)"
- molecularString: "Cl.Cl.N[C@H]1CC[C@H](Nc2nc(NC3CCN(C(=O)Oc4ccc(F)cc4)CC3)c3ncn(C4CCCC4)c3n2)CC1"
  classAssignment: "0 (no)"
- molecularString: "CCOC(=O)c1ccc(NC(=O)N2CCC(Nc3nc(N[C@H]4CC[C@H](N)CC4)nc4c3ncn4C3CCCC3)CC2)cc1.Cl.Cl"
  classAssignment: "1 (yes)"
- molecularString: "Cl.Cl.N[C@H]1CC[C@H](Nc2nc(NC3CCN(S(=O)(=O)c4ccc(F)cc4)CC3)c3ncn(C4CCCC4)c3n2)CC1"
  classAssignment: "0 (no)"
- molecularString: "Cl.Cl.N[C@H]1CC[C@H](Nc2nc(NC3CCN(C(=O)Oc4ccc([N+](=O)[O-])cc4)CC3)c3ncn(C4CCCC4)c3n2)CC1"
  classAssignment: "0 (no)"

Asked: Would you kindly verify if HL60 Mean Vol. ± SD of `COC(=O)c1ccccc1S(=O)(=O)N1CCC(Nc2nc(N[C@H]3CC[C@H](N)CC3)nc3c2ncn3C2CCCC2)CC1.Cl.Cl` is strictly less than 3000?
Given back: 0 (no)

Asked: Then `Cl.Cl.N#Cc1ccc(S(=O)(=O)N2CCC(Nc3nc(N[C@H]4CC[C@H](N)CC4)nc4c3ncn4C3CCCC3)CC2)cc1` ?
Given back: 1 (yes)

* * *

Below, each of the molecules is paired with its reported IC50 value.
biological target: cdk4/cyclin D1 (Homo sapiens, UniProt P11802); test: Cyclin-dependent kinase assay, cdk4/cyclin D1; type: biochemical; conditions: cyclin D1/cdk4; GST-pRb substrate, 10 µM ATP
Sequence (P11802 whole entry): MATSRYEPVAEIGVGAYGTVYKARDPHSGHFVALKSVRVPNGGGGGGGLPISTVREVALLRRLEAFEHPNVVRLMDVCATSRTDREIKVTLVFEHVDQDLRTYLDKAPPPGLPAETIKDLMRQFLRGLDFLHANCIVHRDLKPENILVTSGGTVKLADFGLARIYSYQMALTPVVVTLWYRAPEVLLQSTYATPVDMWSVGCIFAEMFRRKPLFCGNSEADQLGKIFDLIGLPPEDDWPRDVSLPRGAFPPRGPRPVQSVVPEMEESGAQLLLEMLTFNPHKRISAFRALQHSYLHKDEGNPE
Sequence (P24385 whole entry partner): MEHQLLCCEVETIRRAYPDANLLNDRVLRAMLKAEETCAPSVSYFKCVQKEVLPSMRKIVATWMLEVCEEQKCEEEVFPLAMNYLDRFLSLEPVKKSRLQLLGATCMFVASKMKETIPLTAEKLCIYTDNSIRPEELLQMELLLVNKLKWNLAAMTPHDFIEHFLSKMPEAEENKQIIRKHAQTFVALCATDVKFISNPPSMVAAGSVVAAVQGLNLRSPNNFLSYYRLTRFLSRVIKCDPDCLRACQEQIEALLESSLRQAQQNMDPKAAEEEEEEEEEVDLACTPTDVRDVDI
Counter-ions that a name gives are not always drawn.
The reply should be a number in nM, with the unit left off.

Illustrative cases are given below, each with its answer.
- molecule: "N[C@H]1CC[C@H](Nc2nc(NC3CCN(C(=O)Nc4ccc(Cl)c(Cl)c4)CC3)c3ncn(C4CCCC4)c3n2)CC1 [compound 209, dihydrochloride]"
  recordedMeasurement: 50
- molecule: "N[C@H]1CC[C@H](Nc2nc(NC3CCN(C(=O)Nc4cc(C(F)(F)F)ccc4F)CC3)c3ncn(C4CCCC4)c3n2)CC1 [compound 200, dihydrochloride]"
  recordedMeasurement: 597
- molecule: "N[C@H]1CC[C@H](Nc2nc(NC3CCN(S(=O)(=O)c4ccccc4Br)CC3)c3ncn(C4CCCC4)c3n2)CC1 [compound 136, dihydrochloride]"
  recordedMeasurement: 10

Asked: # query: IC50 | item COC(=O)c1ccc(OC(=O)N2CCC(Nc3nc(N[C@H]4CC[C@H](N)CC4)nc4c3ncn4C3CCCC3)CC2)cc1.Cl.Cl [compound 83, dihydrochloride] | system: cdk4/cyclin D1 (Homo sapiens, UniProt P11802)
Given back: 185

Asked: Then COCC(=O)N1CCC(Nc2nc(N[C@H]3CC[C@H](N)CC3)nc3c2ncn3C2CCCC2)CC1 [compound 65, dihydrochloride] ?
Given back: 764

Asked: Then COc1ccc(NC(=O)N2CCC(Nc3nc(N[C@H]4CC[C@H](N)CC4)nc4c3ncn4C3CCCC3)CC2)cc1 [compound 153, dihydrochloride] ?
Given back: 444

* * *

molecular target: cdk4/cyclin D1 (Homo sapiens, UniProt P11802); assay: Cyclin-dependent kinase assay, cdk4/cyclin D1; format: biochemical; conditions: cyclin D1/cdk4; GST-pRb substrate, 10 µM ATP
Structures can show the parent of a compound that is named as a salt.
Below, each of the compounds is paired with its reported IC50 value.
The reply should be a number in nM, with the unit left off.

Illustrative cases are given below, each with its answer.
- compound: "CCCCOC(=O)N1CCC(Nc2nc(N[C@H]3CC[C@H](N)CC3)nc3c2ncn3C2CCCC2)CC1 [compound 92, dihydrochloride]"
  experimentalTarget: "cdk4/cyclin D1 (Homo sapiens, UniProt P11802)"
  IC50 / nM: 2100
- compound: "CCCCOc1ccc(C(=O)N2CCC(Nc3nc(N[C@H]4CC[C@H](N)CC4)nc4c3ncn4C3CCCC3)CC2)cc1"
  experimentalTarget: "cdk4/cyclin D1 (Homo sapiens, UniProt P11802)"
  IC50 / nM: 1490
- compound: "CCOC(=O)NC(=O)N1CCC(Nc2nc(N[C@H]3CC[C@H](N)CC3)nc3c2ncn3C2CCCC2)CC1 [compound 173, dihydrochloride]"
  experimentalTarget: "cdk4/cyclin D1 (Homo sapiens, UniProt P11802)"
  IC50 / nM: 424
- compound: "N[C@H]1CC[C@H](Nc2nc(NC3CCN(C(=O)Nc4ccc(Cl)c(C(F)(F)F)c4)CC3)c3ncn(C4CCCC4)c3n2)CC1 [compound 179, dihydrochloride]"
  experimentalTarget: "cdk4/cyclin D1 (Homo sapiens, UniProt P11802)"
  IC50 / nM: 497
- compound: "N[C@H]1CC[C@H](Nc2nc(NC3CCN(C(=O)Nc4ccccc4Cl)CC3)c3ncn(C4CCCC4)c3n2)CC1 [compound 169, dihydrochloride]"
  experimentalTarget: "cdk4/cyclin D1 (Homo sapiens, UniProt P11802)"
  IC50 / nM: 130

Asked: Entry CCCCCC(=O)N1CCC(Nc2nc(N[C@H]3CC[C@H](N)CC3)nc3c2ncn3C2CCCC2)CC1 [compound 54, dihydrochloride] has what IC50?
Given back: 315

Asked: Then `N[C@H]1CC[C@H](Nc2nc(NC3CCN(C(=O)c4ccncc4)CC3)c3ncn(C4CCCC4)c3n2)CC1` ?
Given back: 1440

Asked: Then CC1(C)C2CCC1(CS(=O)(=O)N1CCC(Nc3nc(N[C@H]4CC[C@H](N)CC4)nc4c3ncn4C3CCCC3)CC1)C(=O)C2 (stereo partly shown) [compound 107, dihydrochloride] ?
Given back: 10

Asked: Then COc1cccc(NC(=O)N2CCC(Nc3nc(N[C@H]4CC[C@H](N)CC4)nc4c3ncn4C3CCCC3)CC2)c1 [compound 155, dihydrochloride] ?
Given back: 482

Asked: Then `N[C@H]1CC[C@H](Nc2nc(NC3CCN(C(=O)c4ccc(Cl)cc4)CC3)c3ncn(C4CCCC4)c3n2)CC1` ?
Given back: 801

Asked: Then Cc1ccc(S(=O)(=O)N2CCC(Nc3nc(N[C@H]4CC[C@H](N)CC4)nc4c3ncn4C3CCCC3)CC2)cc1 [compound 124, dihydrochloride] ?
Given back: 77

Asked: Then `N[C@H]1CC[C@H](Nc2nc(NC3CCN(C(=O)c4c(Cl)cccc4Cl)CC3)c3ncn(C4CCCC4)c3n2)CC1` ?
Given back: 17

Asked: Then CCCCC(CC)C(=O)N1CCC(Nc2nc(N[C@H]3CC[C@H](N)CC3)nc3c2ncn3C2CCCC2)CC1 (mixture of isomers) [compound 57, dihydrochloride] ?
Given back: 1300

* * *

Below, each of the compounds is paired with its reported IC50 value.
Test system: Colo-205
Experiment: In vitro proliferation assay (MTT), Colo-205
Type: cell-based
Conditions: Homo sapiens, COLO 205; MTT assay; value (SD, n) where given; read-out: Colo-205 Colon (IC50 µM)
Experimental: The proliferation of tumor cells can be measured using a tetrazolium salt-based assay known as the MTT (3-[4,5-Dimethylthiazol-2-yl]-2,5-diphenyltetrazolium bromide) assay. The proliferation test is performed essentially as described by Carmichael et al., Cancer Res. 47: 936-942, 1987. […] The absorbance at 570 nm is determined for each culture using a Spectramax plate reader (Molecular Devices). IC50s were determined from the raw data from either the MTT or SRB assays.
Counter-ions that a name gives are not always drawn.

Illustrative cases are given below, each with its answer.
- compound: "CC(CC(=O)N1CCC(Nc2nc(N[C@H]3CC[C@H](N)CC3)nc3c2ncn3C2CCCC2)CC1)CC(C)(C)C (mixture of isomers) [compound 45, dihydrochloride]"
  IC50: "< 0.02 µM"
- compound: "N[C@H]1CC[C@H](Nc2nc(NC3CCN(S(=O)(=O)c4ccccc4)CC3)c3ncn(C4CCCC4)c3n2)CC1 [compound 105, dihydrochloride]"
  IC50: "0.21 µM"

Asked: Entry N[C@H]1CC[C@H](Nc2nc(NC3CCN(S(=O)(=O)c4cccc5cccnc45)CC3)c3ncn(C4CCCC4)c3n2)CC1 [compound 144, dihydrochloride] has what IC50?
Given back: 0.05 µM

Asked: Then CCC(C(=O)N1CCC(Nc2nc(N[C@H]3CC[C@H](N)CC3)nc3c2ncn3C2CCCC2)CC1)c1ccccc1 (relative stereo) [compound 41, dihydrochloride] ?
Given back: 0.11 µM

Asked: Then Cc1noc(C)c1S(=O)(=O)N1CCC(Nc2nc(N[C@H]3CC[C@H](N)CC3)nc3c2ncn3C2CCCC2)CC1 [compound 110, dihydrochloride] ?
Given back: 0.25 µM

Asked: Then CC1(C)C2CCC1(CS(=O)(=O)N1CCC(Nc3nc(N[C@H]4CC[C@H](N)CC4)nc4c3ncn4C3CCCC3)CC1)C(=O)C2 (stereo partly drawn) [compound 107, dihydrochloride] ?
Given back: 0.18 µM
